Origin of values: patent US8048899B2

# EXPERIMENTAL_TARGET: human CB2R (Homo sapiens, UniProt P34972)
# Construct: host or cells: CHO cells
# Sequence (P34972 whole entry): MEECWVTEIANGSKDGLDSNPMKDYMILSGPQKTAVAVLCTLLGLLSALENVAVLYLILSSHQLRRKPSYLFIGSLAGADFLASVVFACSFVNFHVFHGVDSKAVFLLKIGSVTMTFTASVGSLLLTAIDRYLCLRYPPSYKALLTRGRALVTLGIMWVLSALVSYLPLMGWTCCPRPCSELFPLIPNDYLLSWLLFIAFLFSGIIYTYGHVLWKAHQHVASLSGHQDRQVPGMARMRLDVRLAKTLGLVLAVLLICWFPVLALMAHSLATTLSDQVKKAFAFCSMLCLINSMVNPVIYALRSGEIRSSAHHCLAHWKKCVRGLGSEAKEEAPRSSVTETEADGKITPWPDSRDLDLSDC
# TEST: CB2R mediated modulation of cAMP synthesis
# Format: cell-based
# Method: B. CB2R Mediated Modulation of cAMP Synthesis: Compounds of the invention are evaluated for their CB2 agonist or inverse agonistic activity in accordance with the following experimental method. CHO cells expressing human CB2R (Euroscreen) are plated at a density of 5000 cells per well in 384 well plates and incubated overnight at 37° C. […] Cells are lysed and the cAMP concentration is measured using DiscoverX-XS cAMP kit, following the manufacturer's protocol. […]
pEC50: −log10 of the molar value.
Quick rule for you: pEC50 at 7 or higher means Met, lower means Not met.

| STRUCTURE | CLASS_NAME |
| --- | --- |
| COc1ccc(-c2nnc(NC(=O)C(C)(C)S(=O)(=O)C[C@@H]3CCOC3)[nH]2)cc1 | Not met |
| COc1ccc(-c2nnc(NC(=O)C(C)(C)S(=O)(=O)C3CCN(S(C)(=O)=O)CC3)[nH]2)cc1 | Met |
| COCC(C)(C)c1cc(NC(=O)C(C)(C)S(=O)(=O)C2CCOCC2)no1 | Met |
| CO[C@H]1CC[C@@H](S(=O)(=O)C(C)(C)C(=O)Nc2cc(C(C)(C)CO)no2)CC1 | Met |
| CC(C)(C(=O)Nc1cc(C2(CO)CCCC2)no1)S(=O)(=O)CC1CCOCC1 | Not met |
| COc1ccc(-c2nnc(NC(=O)C(C)(C)S(=O)(=O)C3CCOCC3)[nH]2)c(F)c1 | Met |

* * *

# EXPERIMENTAL_TARGET: human CB2R (Homo sapiens, UniProt P34972)
# Construct: host or cells: CHO cells
# TEST: CB2R mediated modulation of cAMP synthesis
# Assay type: cell-based
Just a reminder that ties go to not satisfied: only EC50 strictly below 0.03 µM counts as satisfied.

| STRUCTURE | CLASS_NAME |
| --- | --- |
| CC(C)(CO)c1cc(NC(=O)C(C)(C)S(=O)(=O)C2CCOCC2)no1 | not satisfied |
| CC(C)(C(=O)Nc1nc(-c2ccc(O)cc2)n[nH]1)S(=O)(=O)C1CCCC1 | not satisfied |
| CC(C)(C(=O)Nc1cc(C2(CO)CCCC2)no1)S(=O)(=O)CC1CCC1 | satisfied |
| CC(C)(CO)c1cc(NC(=O)C(C)(C)S(=O)(=O)CC2CCC2)on1 | not satisfied |
| COc1ccc(-c2nnc(NC(=O)C(C)(C)S(=O)(=O)c3ccc(S(C)(=O)=O)cc3F)[nH]2)cc1 | satisfied |

* * *

Catalogue of EC50 readings, one per entry.
# EXPERIMENTAL_TARGET: human CB2R (Homo sapiens, UniProt P34972)
# Construct: host or cells: CHO cells
# TEST: CB2R mediated modulation of cAMP synthesis
# Type: cell-based

| STRUCTURE | EXPERIMENTAL_TARGET | EC50 |
| --- | --- | --- |
| CC[C@@H](C)S(=O)(=O)C(C)(C)C(=O)Nc1nnc(-c2ccc(OC)cc2)[nH]1 | human CB2R (Homo sapiens, UniProt P34972) | 83 nM |
| CC(C)(C(=O)Nc1cc(C2(CO)CCCCC2)no1)S(=O)(=O)C1CCOCC1 | human CB2R (Homo sapiens, UniProt P34972) | 38 nM |
| COCC(C)(C)c1cc(NC(=O)C(C)(C)S(=O)(=O)CC2CCOCC2)on1 | human CB2R (Homo sapiens, UniProt P34972) | 29 nM |
| CC(C)(C(=O)Nc1nc(-c2ccccc2O)n[nH]1)S(=O)(=O)C1CCOCC1 | human CB2R (Homo sapiens, UniProt P34972) | 30 nM |
| CC(C)(C(=O)Nc1nnc(-c2ccc(O)cc2F)[nH]1)S(=O)(=O)C1CCOCC1 | human CB2R (Homo sapiens, UniProt P34972) | 7.7 nM |
| CC(C)(C(=O)Nc1cc(C2(CO)CCCC2)no1)S(=O)(=O)C1CCOCC1 | human CB2R (Homo sapiens, UniProt P34972) | 15 nM |
| CC(C)(C(=O)Nc1nc(-c2ccc(O)cc2)n[nH]1)S(=O)(=O)CC1CCC1 | human CB2R (Homo sapiens, UniProt P34972) | 22 nM |
| CC(C)(C(=O)Nc1nnc(-c2ccc(O)cc2F)[nH]1)S(=O)(=O)CC1CCC1 | human CB2R (Homo sapiens, UniProt P34972) | 9.4 nM |
| COc1ccc(-c2nnc(NC(=O)C(C)(C)S(=O)(=O)C[C@H]3CCOC3)[nH]2)cc1 | human CB2R (Homo sapiens, UniProt P34972) | 90 nM |

* * *

# EXPERIMENTAL_TARGET: human CB1R (Homo sapiens, UniProt P21554)
# Construct: host or cells: CHO cells
# Sequence (P21554 whole entry): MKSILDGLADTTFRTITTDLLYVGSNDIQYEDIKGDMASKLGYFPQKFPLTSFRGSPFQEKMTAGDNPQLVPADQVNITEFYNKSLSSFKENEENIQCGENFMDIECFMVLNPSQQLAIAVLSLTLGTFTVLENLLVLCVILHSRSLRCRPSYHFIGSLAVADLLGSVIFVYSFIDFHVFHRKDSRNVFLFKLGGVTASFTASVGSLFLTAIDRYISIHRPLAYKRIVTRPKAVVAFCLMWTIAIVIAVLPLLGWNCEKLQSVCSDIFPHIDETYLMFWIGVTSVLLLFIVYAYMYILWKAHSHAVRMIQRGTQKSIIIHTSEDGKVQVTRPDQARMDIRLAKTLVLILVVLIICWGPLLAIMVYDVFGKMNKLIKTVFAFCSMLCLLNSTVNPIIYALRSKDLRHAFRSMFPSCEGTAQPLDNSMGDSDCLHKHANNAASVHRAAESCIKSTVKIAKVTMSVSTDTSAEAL
# TEST: CB1R mediated modulation of cAMP synthesis
# Type: cell-based
# MEASUREMENT_CONDITIONS: CHO cells expressing human CB1R; inhibition of forskolin-stimulated cAMP synthesis; read-out: CB1 EC50
ENDPOINT: EC50

| STRUCTURE | EXPERIMENTAL_TARGET | MEASURED |
| --- | --- | --- |
| CC(C)(C(=O)Nc1nnc(-c2ccc(OC(F)(F)F)cc2)[nH]1)S(=O)(=O)C1CCOCC1 | human CB1R (Homo sapiens, UniProt P21554) | > 20 µM |
| CC[C@H](C)S(=O)(=O)C(C)(C)C(=O)Nc1cc(C(C)(C)CO)no1 | human CB1R (Homo sapiens, UniProt P21554) | > 50 µM |
| CC(C)(CO)c1cc(NC(=O)C(C)(C)S(=O)(=O)CCC(F)(F)F)on1 | human CB1R (Homo sapiens, UniProt P21554) | > 50 µM |
| CC(C)(C(=O)Nc1nc(-c2cccc(O)c2)n[nH]1)S(=O)(=O)C1CCOCC1 | human CB1R (Homo sapiens, UniProt P21554) | > 50 µM |
| COCC(C)(C)c1cc(NC(=O)C(C)(C)S(=O)(=O)CC2CC2)no1 | human CB1R (Homo sapiens, UniProt P21554) | > 50 µM |
| COCC(C)(C)c1cc(NC(=O)C(C)(C)S(=O)(=O)CC2CC2)on1 | human CB1R (Homo sapiens, UniProt P21554) | > 50 µM |
| CC(C)(C(=O)Nc1cc(C2(CO)CC2)no1)S(=O)(=O)C1CCOCC1 | human CB1R (Homo sapiens, UniProt P21554) | > 50 µM |
| CC(C)(CO)c1cc(NC(=O)C(C)(C)S(=O)(=O)c2cccc(F)c2F)on1 | human CB1R (Homo sapiens, UniProt P21554) | > 20 µM |
| CC(C)(C(=O)Nc1nc(-c2cccc(O)c2)n[nH]1)S(=O)(=O)CC1CC1 | human CB1R (Homo sapiens, UniProt P21554) | > 50 µM |
| CCOc1ccc(-c2n[nH]c(NC(=O)C(C)(C)S(=O)(=O)CC3CC3)n2)cc1 | human CB1R (Homo sapiens, UniProt P21554) | > 50 µM |
| CC(C)(CO)c1cc(NC(=O)C(C)(C)S(=O)(=O)CC2CCOCC2)no1 | human CB1R (Homo sapiens, UniProt P21554) | > 50 µM |
| CC(C)(C(=O)Nc1cc(C2(CO)CC2)no1)S(=O)(=O)CCCC(F)(F)F | human CB1R (Homo sapiens, UniProt P21554) | > 50 µM |
| CC(C)(C(=O)Nc1nnc(-c2ccc(OC(F)(F)F)cc2)[nH]1)S(=O)(=O)CC1CCOCC1 | human CB1R (Homo sapiens, UniProt P21554) | > 20 µM |
| CC(C)(CO)c1cc(NC(=O)C(C)(C)S(=O)(=O)CC2CCOCC2)on1 | human CB1R (Homo sapiens, UniProt P21554) | > 50 µM |

* * *

# EXPERIMENTAL_TARGET: human CB1R (Homo sapiens, UniProt P21554)
# Construct: host or cells: CHO cells
# TEST: CB1R mediated modulation of cAMP synthesis
# Assay type: cell-based
pEC50: −log10 of the molar value.
ENDPOINT: pEC50

| STRUCTURE | ENDPOINT | MEASURED |
| --- | --- | --- |
| CC(C)(C(=O)Nc1cc(C2(CO)CCC2)no1)S(=O)(=O)CC1CCC1 | pEC50 | < 4.30 |
| COc1ccc(-c2nnc(NC(=O)C(C)(C)S(=O)(=O)C3CCOCC3)[nH]2)c(F)c1 | pEC50 | < 4.30 |
| COCC(C)(C)c1cc(NC(=O)C(C)(C)S(=O)(=O)CC2CCOCC2)on1 | pEC50 | < 4.70 |
| COc1ccc(-c2nnc(NC(=O)C(C)(C)S(=O)(=O)C[C@@H]3CCOC3)[nH]2)cc1 | pEC50 | < 4.30 |
| CC(C)(CO)c1cc(NC(=O)C(C)(C)S(=O)(=O)c2cccc(F)c2F)no1 | pEC50 | < 4.30 |
| CC(C)(C(=O)Nc1cc(C2(CO)CCCC2)no1)S(=O)(=O)CC1CCC1 | pEC50 | < 4.70 |
| COCC(C)(C)c1cc(NC(=O)C(C)(C)S(=O)(=O)C2CCN(S(C)(=O)=O)CC2)no1 | pEC50 | < 4.30 |
| CC[C@@H](C)S(=O)(=O)C(C)(C)C(=O)Nc1nnc(-c2ccc(OC)cc2)[nH]1 | pEC50 | < 4.30 |
| COCC(C)(C)c1cc(NC(=O)C(C)(C)S(=O)(=O)C2CCOCC2)no1 | pEC50 | < 4.30 |
| COc1ccc(-c2nnc(NC(=O)C(C)(C)S(=O)(=O)CC3CCC3)[nH]2)c(F)c1 | pEC50 | < 4.70 |
| CC(C)(CO)c1cc(NC(=O)C(C)(C)S(=O)(=O)CC2CCC2)no1 | pEC50 | < 4.30 |
| CC(C)(C(=O)Nc1nc(-c2ccc(O)cc2)n[nH]1)S(=O)(=O)CC1CCC1 | pEC50 | < 4.30 |
| CC(C)(CO)c1cc(NC(=O)C(C)(C)S(=O)(=O)C2CCN(S(C)(=O)=O)CC2)on1 | pEC50 | < 4.30 |
| COc1ccc(-c2nnc(NC(=O)C(C)(C)S(=O)(=O)C3CCN(S(C)(=O)=O)CC3)[nH]2)cc1 | pEC50 | 4.53 |
| COc1ccc(-c2nnc(NC(=O)C(C)(C)S(=O)(=O)CC3CCOCC3)[nH]2)cc1 | pEC50 | < 4.30 |
| CC(C)(CO)c1cc(NC(=O)C(C)(C)S(=O)(=O)c2ccc(F)cc2)no1 | pEC50 | < 4.30 |
| CC(C)(C(=O)Nc1cc(C2(CO)CCCC2)no1)S(=O)(=O)CC1CCOCC1 | pEC50 | < 4.30 |
| CC(C)(C(=O)Nc1cc(C2(CO)CCCC2)no1)S(=O)(=O)C1CCOCC1 | pEC50 | < 4.30 |
| CC(C)(CO)c1cc(NC(=O)C(C)(C)S(=O)(=O)C2CCCC2)on1 | pEC50 | < 4.70 |
| CC(C)(C(=O)Nc1nnc(-c2ccc(O)cc2)[nH]1)S(=O)(=O)C1CCOCC1 | pEC50 | < 4.70 |
| CC(C)(C(=O)Nc1nnc(-c2ccc(O)cc2)[nH]1)S(=O)(=O)CC1CC1 | pEC50 | < 4.30 |
| COc1ccc(-c2nnc(NC(=O)C(C)(C)S(=O)(=O)C[C@H]3CCOC3)[nH]2)cc1 | pEC50 | < 4.30 |
| CC(C)(CO)c1cc(NC(=O)C(C)(C)S(=O)(=O)C2CCN(S(C)(=O)=O)CC2)no1 | pEC50 | < 4.30 |
| CC(C)(CO)c1cc(NC(=O)C(C)(C)S(=O)(=O)c2ccc(F)cc2)on1 | pEC50 | < 4.70 |
| CC(C)(CO)c1cc(NC(=O)C(C)(C)S(=O)(=O)CC2CCC(=O)CC2)on1 | pEC50 | < 4.30 |
| CC(C)(CO)c1nnc(NC(=O)C(C)(C)S(=O)(=O)C2CCOCC2)s1 | pEC50 | < 4.30 |
| CC(C)(C(=O)Nc1nnc(-c2ccc(O)cc2)[nH]1)S(=O)(=O)CC1CCOCC1 | pEC50 | < 4.70 |
| CC(C)(CO)c1cc(NC(=O)C(C)(C)S(=O)(=O)CC2CCC2)on1 | pEC50 | < 4.70 |
| CC(C)CCS(=O)(=O)C(C)(C)C(=O)Nc1nnc(C(C)(C)CO)s1 | pEC50 | < 4.70 |
| CC(C)(CO)c1cc(NC(=O)C(C)(C)S(=O)(=O)CCCC(F)(F)F)no1 | pEC50 | < 4.70 |
| CC(C)(C(=O)Nc1cc(C2(CO)CCCCC2)no1)S(=O)(=O)CC1CCC1 | pEC50 | < 4.70 |
| CC(C)(CO)c1cc(NC(=O)C(C)(C)S(=O)(=O)CC[C@@H]2CCOC2)on1 | pEC50 | < 4.30 |
| CC(C)(CO)c1cc(NC(=O)C(C)(C)S(=O)(=O)C2CCOCC2)no1 | pEC50 | < 4.30 |
| CC(C)(CO)c1cc(NC(=O)C(C)(C)S(=O)(=O)CC[C@H]2CCOC2)on1 | pEC50 | < 4.70 |
| CC(C)(CO)c1cc(NC(=O)C(C)(C)S(=O)(=O)C2CCOCC2)on1 | pEC50 | < 4.30 |
| CC(C)(C(=O)Nc1nnc(-c2ccc(O)cc2F)[nH]1)S(=O)(=O)C1CCOCC1 | pEC50 | < 4.30 |
| COc1ccc(-c2nnc(NC(=O)C(C)(C)S(=O)(=O)N3CC[C@@H](F)C3)[nH]2)cc1 | pEC50 | < 4.30 |
